# system: hQ23 (HEK-293 cell line stably transfected with one of the members of the KCNQ family) (Homo sapiens, UniProt O43525+O43526)
# Construct: expressed in transfected cells; host or cells: HEK-293, stably transfected
# Sequence (O43526 whole entry): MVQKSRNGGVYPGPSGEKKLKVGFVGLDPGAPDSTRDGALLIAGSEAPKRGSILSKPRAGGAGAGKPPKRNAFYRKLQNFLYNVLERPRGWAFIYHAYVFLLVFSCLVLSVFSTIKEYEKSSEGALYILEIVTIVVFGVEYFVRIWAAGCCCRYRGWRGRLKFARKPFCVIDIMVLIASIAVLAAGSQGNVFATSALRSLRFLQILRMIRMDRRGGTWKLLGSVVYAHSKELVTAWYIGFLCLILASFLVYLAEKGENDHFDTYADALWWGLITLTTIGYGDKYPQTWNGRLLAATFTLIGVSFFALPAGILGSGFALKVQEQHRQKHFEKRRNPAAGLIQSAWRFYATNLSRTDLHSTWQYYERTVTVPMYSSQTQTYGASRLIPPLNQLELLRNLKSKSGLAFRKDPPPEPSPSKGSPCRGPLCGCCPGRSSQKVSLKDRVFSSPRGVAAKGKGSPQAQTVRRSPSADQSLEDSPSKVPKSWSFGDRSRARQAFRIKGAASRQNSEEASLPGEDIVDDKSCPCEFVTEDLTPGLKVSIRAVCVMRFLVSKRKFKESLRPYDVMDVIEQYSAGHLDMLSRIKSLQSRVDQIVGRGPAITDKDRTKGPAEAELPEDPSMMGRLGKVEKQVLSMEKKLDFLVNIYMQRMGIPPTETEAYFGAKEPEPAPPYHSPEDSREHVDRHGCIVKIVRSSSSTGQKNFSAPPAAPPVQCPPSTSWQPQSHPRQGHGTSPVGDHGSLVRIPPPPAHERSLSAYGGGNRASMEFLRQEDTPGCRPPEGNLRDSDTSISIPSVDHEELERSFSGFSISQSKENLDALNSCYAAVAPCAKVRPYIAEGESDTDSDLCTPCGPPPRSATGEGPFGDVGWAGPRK
# Sequence (O43525 whole entry): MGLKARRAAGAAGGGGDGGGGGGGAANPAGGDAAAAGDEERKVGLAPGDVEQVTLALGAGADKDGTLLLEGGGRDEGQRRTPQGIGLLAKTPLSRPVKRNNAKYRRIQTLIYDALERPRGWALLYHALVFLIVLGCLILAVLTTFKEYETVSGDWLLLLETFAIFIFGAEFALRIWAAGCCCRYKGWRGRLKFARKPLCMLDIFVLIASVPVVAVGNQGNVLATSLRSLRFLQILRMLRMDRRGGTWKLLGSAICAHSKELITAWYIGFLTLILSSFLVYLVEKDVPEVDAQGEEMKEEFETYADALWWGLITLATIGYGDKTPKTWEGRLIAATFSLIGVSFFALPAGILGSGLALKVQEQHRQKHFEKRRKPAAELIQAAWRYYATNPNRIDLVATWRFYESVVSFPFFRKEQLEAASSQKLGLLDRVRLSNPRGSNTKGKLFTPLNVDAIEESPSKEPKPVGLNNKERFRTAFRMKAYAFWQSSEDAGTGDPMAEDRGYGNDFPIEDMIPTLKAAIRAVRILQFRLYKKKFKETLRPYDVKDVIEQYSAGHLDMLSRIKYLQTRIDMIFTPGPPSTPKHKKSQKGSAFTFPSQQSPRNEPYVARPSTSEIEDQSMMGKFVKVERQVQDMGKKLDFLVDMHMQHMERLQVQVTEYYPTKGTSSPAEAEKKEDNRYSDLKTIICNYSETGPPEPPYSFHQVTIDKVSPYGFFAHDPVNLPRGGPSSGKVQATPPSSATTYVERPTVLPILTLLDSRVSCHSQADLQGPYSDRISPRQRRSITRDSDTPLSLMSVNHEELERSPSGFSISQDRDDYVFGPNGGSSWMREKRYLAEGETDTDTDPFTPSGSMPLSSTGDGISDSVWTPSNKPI
# procedure-text: Thallium flux assay for KCNQ channel blockers (FLIPR, BTC dye)
# Assay type: cell-based
# measurement-context: hQ23 cells, thallium flux assay
Field: pEC50. Provide a value for each of the compounds that follow.
Note: pEC50 values are expressed as the negative base-10 logarithm of concentration in M.

Retrieve pEC50 measured for CC1CCN(c2ncc(C(=O)NC(C)c3cccc4ccccc34)c(C3(c4ccc(F)cc4)CCCC3)n2)CC1 (stereo not shown) [Example 245] and print it.
8.00

Please give the documented pEC50 of CC1CCCN(c2ncc(C(=O)NCc3ccc4c(c3)OCO4)c(C3(c4ccc(F)cc4)CCCC3)n2)C1 (stereo not shown) [Example 236]
7.41

Specify reported pEC50 for the compound shown: CC(NC(=O)c1cnc(N2CCCC2)nc1C1(c2ccc(F)cc2)CCCC1)c1ccc(F)cc1 (stereo not shown) [Example 282]
6.23

Tell us which pEC50 value is on record for O=C(NCc1ccc(Cl)c(Cl)c1)c1cnc(NC2CCCC2)nc1C1(c2ccc(F)cc2)CCCC1 [Example 258]
7.04

Supply measured pEC50 of O=C(NCc1ccc(Cl)cc1Cl)c1cnc(N2CCCC2)nc1C1(c2ccc(F)cc2)CCCC1 [Example 261] in your reply.
7.55

Supply measured pEC50 of CC1CCCN(c2ncc(C(=O)NCc3cccc4ccccc34)c(C3(c4ccc(F)cc4)CCCC3)n2)C1 (stereo not shown) [Example 250] in your reply.
8.00

Supply reported pEC50 belonging to this compound: CC1CCC(Nc2ncc(C(=O)NC(C)c3cccc4ccccc34)c(C3(c4ccc(F)cc4)CCCC3)n2)CC1 (stereo not shown) [Example 241]
8.00
